Recorded −80°C for 1month Accuracy (%) for the following compounds
# experiment_description: Stability of analytes in rat plasma (auto-sampler, freeze-thaw, room temperature, long-term)
# reported_conditions: 100 ng/mL, −80°C 1 month
measurement_label: −80°C for 1month Accuracy (%)

INSERT INTO results (compound, recorded_number) VALUES
  ('O=C(/C=C/c1ccc(O[C@@H]2O[C@H](CO)[C@@H](O)[C@H](O)[C@H]2O)cc1)c1ccc(O)cc1O', 106.0),
  ('O=C(/C=C/c1ccc(O)c(O)c1)O[C@H]1[C@H](O)C[C@](O)(C(=O)O)C[C@H]1O', 110.0),
  ('O=C(O)[C@H]1O[C@@H](Oc2cc(O)c3c(=O)cc(-c4ccc(O)cc4)oc3c2)[C@H](O)[C@@H](O)[C@@H]1O [apigenin-7-O-glucuronide]', 85.0),
  ('O=C1C[C@@H](c2ccc(O)cc2)Oc2cc(O)cc(O)c21', 97.4),
  ('COc1cc(/C=C/C(=O)O)ccc1O', 95.9),
  ('CC(C)(O[C@@H]1O[C@H](CO)[C@@H](O)[C@H](O)[C@H]1O)[C@@H]1CC[C@](O)(CO)[C@H]2CC(=O)[C@@](C)(O)[C@@H]2C1 [atractyloside A]', 96.2),
  ('COc1c2c(cc3oc(CO)cc(=O)c13)O[C@H](C(C)(C)O)C2', 99.6),
  ('C[C@@H]1O[C@@H](Oc2c(-c3ccc(O)c(O)c3)oc3cc(O)cc(O)c3c2=O)[C@H](O)[C@H](O)[C@H]1O', 95.6),
  ('COC(=O)C1=CO[C@@H](O[C@@H]2O[C@H](CO)[C@@H](O)[C@H](O)[C@H]2O)[C@H]2[C@@H]1C(=O)C[C@@H]2C', 95.7),
  ('O=C(O)C=Cc1ccc(O)cc1', 115.0),
  ('O=C(O)c1ccc(O)c(O)c1', 100.0),
  ('O=C1C[C@@H](c2ccc(O[C@@H]3O[C@H](CO)[C@@H](O)[C@H](O)[C@H]3O)cc2)Oc2cc(O)ccc21', 103.0),
  ('C[C@@]12C[C@@]3(O)O[C@@H](O1)[C@]1(COC(=O)c4ccccc4)[C@H]3C[C@@]12O[C@@H]1O[C@H](CO)[C@@H](O)[C@H](O)[C@H]1O', 95.2),
  ('O=c1c(O[C@@H]2O[C@H](CO)[C@H](O)[C@H](O)[C@H]2O)c(-c2ccc(O)c(O)c2)oc2cc(O)cc(O)c12 [hyperoside]', 88.8),
  ('CC(C)=CCC[C@](C)(O)[C@H]1CC[C@]2(C)[C@@H]1[C@H](O)C[C@@H]1[C@@]3(C)CC[C@H](O)C(C)(C)[C@@H]3[C@@H](O[C@@H]3O[C@H](CO)[C@@H](O)[C@H](O)[C@H]3O)C[C@]12C [ginsenoside Rh1]', 93.5),
  ('COc1ccc(/C=C/C(=O)O)cc1O', 85.5);

---

Recorded half-life for the following compounds
# experiment_description: Pharmacokinetic study in rat plasma after oral administration of QJYQ (UHPLC-sMRM)
# Format: in vivo, Sprague-Dawley rats
# reported_conditions: male, Sprague-Dawley; rat plasma, oral QJYQ 3.15 g/kg, n = 8, mean ± SD
measurement_label: half-life

INSERT INTO assay_data (compound, result) VALUES
  ('COc1c(O)cc(O)c2c(=O)cc(-c3ccccc3)oc12 [wogonin]', '115 min'),
  ('CC1(C)[C@@H](O[C@H]2O[C@H](C(=O)O)[C@@H](O)[C@H](O)[C@H]2O[C@@H]2O[C@H](C(=O)O)[C@@H](O)[C@H](O)[C@H]2O)CC[C@]2(C)[C@H]3C(=O)C=C4[C@@H]5C[C@@](C)(C(=O)O)CC[C@]5(C)CC[C@@]4(C)[C@]3(C)CC[C@@H]12 [glycyrrhizic acid]', '100 min'),
  ('O=C(O)c1ccc(O)c(O)c1 [protocatechuic acid]', '140 min'),
  ('O=C(O)C=Cc1ccc(O)cc1 [p-Coumaric acid]', '107 min'),
  ('O=C(O)[C@H]1O[C@@H](Oc2cc3oc(-c4ccccc4)cc(=O)c3c(O)c2O)[C@H](O)[C@@H](O)[C@@H]1O [baicalin]', '185 min'),
  ('COc1ccc(/C=C/C(=O)O)cc1O [isoferulic acid]', '281 min');

---

# experiment_description: Stability of the working solution (4°C for 1 month)
# Format: physicochemical
# reported_conditions: concentration 100 ng/mL
measurement_label: Working solution Accuracy (%)

INSERT INTO results (molecule, recorded_number) VALUES
  ('COc1ccc(-c2oc3c(CC=C(C)C)c(O[C@@H]4O[C@H](CO)[C@@H](O)[C@H](O)[C@H]4O)cc(O)c3c(=O)c2O[C@@H]2O[C@@H](C)[C@H](O)[C@@H](O)[C@H]2O)cc1', 94.8),
  ('COc1c(O)cc(O)c2c(=O)cc(-c3ccccc3)oc12', 85.8),
  ('CC(=O)O[C@H]1[C@H](O[C@H]2CC[C@]34C[C@]35CC[C@]3(C)[C@@H]([C@@]6(C)CC[C@@H](C(C)(C)O)O6)[C@@H](O)C[C@@]3(C)[C@@H]5C[C@H](O[C@@H]3O[C@H](CO)[C@@H](O)[C@H](O)[C@H]3O)[C@H]4C2(C)C)OC[C@@H](O)[C@@H]1O [astragaloside II(IS)]', 96.7),
  ('COc1c2ccoc2c(OC)c2oc(=O)ccc12', 93.5),
  ('CC1(C)[C@@H](O[C@H]2O[C@H](C(=O)O)[C@@H](O)[C@H](O)[C@H]2O[C@@H]2O[C@H](C(=O)O)[C@@H](O)[C@H](O)[C@H]2O)CC[C@]2(C)[C@H]3C(=O)C=C4[C@@H]5C[C@@](C)(C(=O)O)CC[C@]5(C)CC[C@@]4(C)[C@]3(C)CC[C@@H]12', 104.0);

---

# experiment_description: Pharmacokinetic study in rat plasma after oral administration of QJYQ (UHPLC-sMRM)
# Assay type: in vivo, Sprague-Dawley rats
# reported_conditions: rat, in vivo, po, 3.15 g/kg
measurement_label: MRT(0-t) (h)

INSERT INTO results (molecule, measurement_label, units, recorded_number) VALUES
  ('O=C(O)[C@H]1O[C@@H](Oc2cc(O)c3c(=O)cc(-c4ccc(O)cc4)oc3c2)[C@H](O)[C@@H](O)[C@@H]1O [apigenin-7-O-glucuronide]', 'MRT(0-t)', 'h', 8.39),
  ('COc1cc(/C=C/C(=O)O)cc(OC)c1O', 'MRT(0-t)', 'h', 6.28),
  ('COC(=O)C1=CO[C@@H](O[C@@H]2O[C@H](CO)[C@@H](O)[C@H](O)[C@H]2O)[C@H]2[C@@H]1C(=O)C[C@@H]2C', 'MRT(0-t)', 'h', 4.85),
  ('COc1c(O[C@@H]2O[C@H](C(=O)O)[C@@H](O)[C@H](O)[C@H]2O)cc(O)c2c(=O)cc(-c3ccccc3)oc12 [wogonoside]', 'MRT(0-t)', 'h', 8.39);

---

# experiment_description: Stability of analytes in rat plasma (auto-sampler, freeze-thaw, room temperature, long-term)
# reported_conditions: 500 ng/mL, −80°C 1 month
Recorded −80°C for 1month Accuracy (%) for the following compounds
measurement_label: −80°C for 1month Accuracy (%)

INSERT INTO assay_data (compound, measurement_label, recorded_number) VALUES
  ('C[C@@]12C[C@@]3(O)O[C@@H](O1)[C@]1(COC(=O)c4ccccc4)[C@H]3C[C@@]12O[C@@H]1O[C@H](CO)[C@@H](O)[C@H](O)[C@H]1O', '−80°C for 1month Accuracy (%)', 95.3),
  ('O=C(/C=C/c1ccc(O[C@@H]2O[C@H](CO)[C@@H](O)[C@H](O)[C@H]2O)cc1)c1ccc(O)cc1O', '−80°C for 1month Accuracy (%)', 95.0),
  ('O=c1cc(-c2ccccc2)oc2cc(O)c(O)c(O)c12', '−80°C for 1month Accuracy (%)', 104.0),
  ('COc1c(O[C@@H]2O[C@H](C(=O)O)[C@@H](O)[C@H](O)[C@H]2O)cc(O)c2c(=O)cc(-c3ccccc3)oc12 [wogonoside]', '−80°C for 1month Accuracy (%)', 113.0),
  ('O=C1C[C@@H](c2ccc(O[C@@H]3O[C@H](CO)[C@@H](O)[C@H](O)[C@H]3O)cc2)Oc2cc(O)ccc21', '−80°C for 1month Accuracy (%)', 108.0),
  ('COc1ccc(-c2coc3cc(O[C@@H]4O[C@H](CO)[C@@H](O)[C@H](O)[C@H]4O)ccc3c2=O)cc1', '−80°C for 1month Accuracy (%)', 98.2),
  ('O=C(O)[C@H]1O[C@@H](Oc2cc(O)c3c(=O)cc(-c4ccc(O)cc4)oc3c2)[C@H](O)[C@@H](O)[C@@H]1O [apigenin-7-O-glucuronide]', '−80°C for 1month Accuracy (%)', 108.0);

Sourced from paper PMC10133546
